So I've got a bunch of binders here, and I need their pIC50 values.
Molecular target: T1, alphaEbeta7 on alphaEbeta7-transfected 293 cells (human, UniProt P38570 19-1179; P26010 20-798)
T1 construct: whole, on cells; also called alphaEbeta7 293 cells
T1 sequence (P38570 19-1179, chain 1 of 2): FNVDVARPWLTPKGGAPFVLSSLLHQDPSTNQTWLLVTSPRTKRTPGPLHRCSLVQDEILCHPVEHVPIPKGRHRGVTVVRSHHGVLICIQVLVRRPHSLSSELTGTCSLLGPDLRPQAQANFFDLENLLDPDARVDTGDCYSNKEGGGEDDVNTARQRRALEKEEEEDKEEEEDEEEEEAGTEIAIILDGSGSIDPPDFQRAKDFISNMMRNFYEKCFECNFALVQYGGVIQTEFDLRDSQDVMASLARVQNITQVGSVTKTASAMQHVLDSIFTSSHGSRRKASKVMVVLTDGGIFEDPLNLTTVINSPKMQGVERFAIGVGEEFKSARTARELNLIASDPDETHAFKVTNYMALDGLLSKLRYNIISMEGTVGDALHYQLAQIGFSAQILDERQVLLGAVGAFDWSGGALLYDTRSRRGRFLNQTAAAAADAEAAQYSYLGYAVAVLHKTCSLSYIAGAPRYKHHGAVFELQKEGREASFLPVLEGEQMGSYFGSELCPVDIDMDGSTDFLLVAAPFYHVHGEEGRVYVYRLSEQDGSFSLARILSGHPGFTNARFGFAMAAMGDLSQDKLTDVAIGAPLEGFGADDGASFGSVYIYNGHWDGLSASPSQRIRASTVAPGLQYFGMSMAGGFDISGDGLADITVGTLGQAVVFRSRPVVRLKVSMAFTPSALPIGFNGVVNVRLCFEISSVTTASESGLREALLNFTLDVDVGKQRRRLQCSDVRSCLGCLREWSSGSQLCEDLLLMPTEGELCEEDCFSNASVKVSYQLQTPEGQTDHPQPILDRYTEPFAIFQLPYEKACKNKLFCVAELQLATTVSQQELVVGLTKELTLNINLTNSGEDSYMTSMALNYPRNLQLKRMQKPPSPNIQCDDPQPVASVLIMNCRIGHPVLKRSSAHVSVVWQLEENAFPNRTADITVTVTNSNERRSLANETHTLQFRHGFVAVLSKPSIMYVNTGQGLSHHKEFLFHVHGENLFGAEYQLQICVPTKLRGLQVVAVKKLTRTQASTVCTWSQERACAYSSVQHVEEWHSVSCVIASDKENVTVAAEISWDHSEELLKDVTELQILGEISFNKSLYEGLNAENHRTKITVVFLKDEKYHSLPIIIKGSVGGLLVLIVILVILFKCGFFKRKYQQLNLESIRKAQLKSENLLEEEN
T1 sequence (P26010 20-798, chain 2 of 2): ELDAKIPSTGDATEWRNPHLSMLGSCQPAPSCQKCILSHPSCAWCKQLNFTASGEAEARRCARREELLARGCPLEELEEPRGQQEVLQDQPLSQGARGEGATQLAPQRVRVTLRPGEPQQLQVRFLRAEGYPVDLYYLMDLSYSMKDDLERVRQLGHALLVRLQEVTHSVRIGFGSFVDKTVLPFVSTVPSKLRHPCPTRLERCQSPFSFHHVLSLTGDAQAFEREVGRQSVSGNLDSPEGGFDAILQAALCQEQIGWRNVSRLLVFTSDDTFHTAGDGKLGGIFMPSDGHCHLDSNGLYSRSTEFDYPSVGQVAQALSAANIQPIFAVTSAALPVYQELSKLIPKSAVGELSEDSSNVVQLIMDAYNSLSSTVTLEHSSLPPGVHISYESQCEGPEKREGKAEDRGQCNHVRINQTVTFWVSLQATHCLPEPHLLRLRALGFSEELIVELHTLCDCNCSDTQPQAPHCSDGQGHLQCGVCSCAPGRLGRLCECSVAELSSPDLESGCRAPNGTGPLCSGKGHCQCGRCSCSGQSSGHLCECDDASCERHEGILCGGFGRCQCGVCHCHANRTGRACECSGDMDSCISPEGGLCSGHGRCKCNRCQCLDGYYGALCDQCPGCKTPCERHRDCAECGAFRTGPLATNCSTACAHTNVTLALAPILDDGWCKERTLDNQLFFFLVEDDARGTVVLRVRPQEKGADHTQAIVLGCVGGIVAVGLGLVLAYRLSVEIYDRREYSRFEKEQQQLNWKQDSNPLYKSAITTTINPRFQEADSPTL
Experiment: cell adhesion inhibition, alphaEbeta7 293 cells on coated huE-Cadherin, experiment 2 of 3
Conceptually, pIC50 converts a concentration in mol/L into minus its log10.

Query block: So what does the record say about pIC50 for Rat Fib504 (antibody FIB504.64 produced by hybridoma ATCC HB-293) (antibody, V domains shown, Whole rat antibody in the cell adhesion assays; also called rat anti-mouse beta7 antibody) VH: EVQLQESGPGLVKPSQSLSLTCSVTGFFITNNYWGWIRKFPGNKMEWMGYISYSGSTSYNPSLKSRISITRDTSKNQFFLQLNSVTTEDTATYYCAMTGSSGYFDFWGPGTMVTVSS VL: DVVMTQSPATLSVTPGERISLSCRASESVDTYLHWYQQKPNESPRLLIKYASQSISGIPSRFSGSGSGTDFTLSINGVELEDLSIYYCQQGNSLPNTFGAGTKLELKR ?
Result block: 8.10

Query block: Also Variant hu504.32, IgG (antibody, V domains shown, methionine at heavy chain position 94; also called hu504.32M; 504.32M) VH: EVQLVESGGGLVQPGGSLRLSCAASGFFITNNYWGWVRQAPGKGLEWVGYISYSGSTSYNPSLKSRFTISRDTSKNTFYLQMNSLRAEDTAVYYCAMTGSSGYFDFWGQGTLVTVSS VL: DIQMTQSPSSLSASVGDRVTITCRASESVDDLLHWYQQKPGKAPKLLIKYASQSISGVPSRFSGSGSGTDFTLTISSLQPEDFATYYCQQGNSLPNTFGQGTKVEIKR , if possible.
Result block: 8.16

Query block: Also Variant hu504.5, IgG (antibody, name in Kabat numbering, V domains shown) VH: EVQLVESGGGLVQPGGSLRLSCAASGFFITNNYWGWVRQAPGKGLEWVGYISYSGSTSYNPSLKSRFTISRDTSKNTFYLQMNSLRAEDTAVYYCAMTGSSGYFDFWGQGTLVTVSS VL: DIQMTQSPSSLSASVGDRVTITCRASESVDSLLHWYQQKPGKAPKLLIKYASQSISGVPSRFSGSGSGTDFTLTISSLQPEDFATYYCQQGNSLPNTFGQGTKVEIKR , if possible.
Result block: 7.99

Query block: Also Variant hu504.16, IgG (antibody, name in Kabat numbering, V domains shown) VH: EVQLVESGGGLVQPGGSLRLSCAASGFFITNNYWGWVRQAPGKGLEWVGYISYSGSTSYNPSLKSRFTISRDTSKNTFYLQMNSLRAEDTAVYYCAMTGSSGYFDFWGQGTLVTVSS VL: DIQMTQSPSSLSASVGDRVTITCRASESVDTLLHWYQQKPGKAPKLLIKYASQSISGVPSRFSGSGSGTDFTLTISSLQPEDFATYYCQQGNSLPNTFGQGTKVEIKR , if possible.
Result block: 8.00

Reference source for all entries: patent US20090226437A1
